System: OATP1B3
METHOD DESCRIPTION: Cell viability assay (BrdU incorporation) on HEK293-OATP1B3 cells overexpressing OATP1B3
Assay type: cell-based
CONDITION NOTES: human, HEK293-OATP1B3 cells (overexpress OATP1B3), 96 h drug exposure, read-out: Cytotoxicity on HEK-OATP1B3 cells EC50
Starred links: 1 amine or outer side, 2 acyl side, 3 side chain; linkers in the order of their positions; H or OH if unused. Positions of bridges follow the written chain, without caps; N, C: chain ends. Non-standard residues stand in square brackets, D forms with d. Residues, ends and D or L forms follow the SMILES beside them. Trp(2-yl) = O=C([C@H](Cc1c([*:3])[nH]c2ccccc12)N[*:1])[*:2]; Ile(4R-OH,5-OH) = C[C@H]([C@H](N)C(=O)O)[C@@H](O)CO; Pro(4,4-F2) = O=C(O)[C@@H]1CC(F)(F)CN1; Hyp = O=C(O)[C@@H]1C[C@@H](O)CN1; Ac3c = NC1(C(=O)O)CC1; Aib = CC(C)(N)C(=O)O
PROPERTY: EC50 at 96 h (nM)
Value expressed in nM; do not type the unit.

# COMPOUND, RECORDED NUMBER
data = [
    ("CC[C@H](C)[C@@H]1NC(=O)CNC(=O)[C@@H]2Cc3c([nH]c4ccccc34)SC[C@H](NC(=O)CNC1=O)C(=O)N[C@@H](CC(N)=O)C(=O)N1CC(F)(F)C[C@H]1C(=O)N[C@@H]([C@@H](C)[C@@H](O)CO)C(=O)N2 [Compound 7q] (cyclo(CN[Pro(4,4-F2)][Ile(4R-OH,5-OH)][Trp(2-yl)]GIG); thioether 1-5)", 49),
    ("CC[C@H](C)[C@@H]1NC(=O)CNC(=O)[C@@H]2Cc3c([nH]c4cc(O)ccc34)[S@+]([O-])C[C@H](NC(=O)CNC1=O)C(=O)N[C@@H](CC(N)=O)C(=O)N1C[C@H](O)C[C@H]1C(=O)N[C@@H]([C@@H](C)[C@@H](O)CO)C(=O)N2 [Compound 7f, Alpha-amanitin, reference compound]", 5.2),
    ("CC[C@H](C)[C@@H]1NC(=O)CNC(=O)[C@@H]2Cc3c([nH]c4ccccc34)SC[C@H](NC(=O)[C@@H](C)NC1=O)C(=O)N[C@@H](CC(N)=O)C(=O)N1C[C@H](O)C[C@H]1C(=O)N[C@@H]([C@@H](C)[C@@H](O)CO)C(=O)N2 [Compound 7o] (cyclo(CN[Hyp][Ile(4R-OH,5-OH)][Trp(2-yl)]GI[dA]); thioether 1-5)", 28),
    ("CC[C@H](C)[C@@H]1NC(=O)CNC(=O)[C@@H]2Cc3c([nH]c4ccccc34)SC[C@H](NC(=O)[C@H]3CCCN3C1=O)C(=O)N[C@@H](CC(N)=O)C(=O)N1C[C@H](O)C[C@H]1C(=O)N[C@@H]([C@@H](C)[C@@H](O)CO)C(=O)N2 [Compound 7i] (cyclo(CN[Hyp][Ile(4R-OH,5-OH)][Trp(2-yl)]GI[dP]); thioether 1-5)", 210),
    ("CC[C@H](C)[C@@H]1NC(=O)CNC(=O)[C@@H]2Cc3c([nH]c4ccccc34)SC[C@H](NC(=O)C(C)(C)NC1=O)C(=O)N[C@@H](CC(N)=O)C(=O)N1C[C@H](O)C[C@H]1C(=O)N[C@@H]([C@@H](C)[C@@H](O)CO)C(=O)N2 [Compound 7m] (cyclo([Aib]CN[Hyp][Ile(4R-OH,5-OH)][Trp(2-yl)]GI); thioether 2-6)", 120),
]

Req: Give its EC50 at 96 h value. Item: CC[C@H](C)[C@@H]1NC(=O)CNC(=O)[C@@H]2Cc3c([nH]c4ccccc34)SC[C@H](NC(=O)C3(CC3)NC1=O)C(=O)N[C@@H](CC(N)=O)C(=O)N1C[C@H](O)C[C@H]1C(=O)N[C@@H]([C@@H](C)[C@@H](O)CO)C(=O)N2 [Compound 7r] (cyclo([Ac3c]CN[Hyp][Ile(4R-OH,5-OH)][Trp(2-yl)]GI); thioether 2-6)
Resp: 10
